# Test system: microorganisms
# Measurement Description: Peptide activities: targeting/binding, antimicrobial, growth or phenotype altering (Tables 7, 8);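 note: key B targeting or binding activity; M antimicrobial activity; G GROWTH or phenotype altering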
# Type: cell-based
# Condition Notes: peptides having multiple activities
Observation Type: Activities

{"Substance": "PF-465: peptide having multiple activities (KPVGKALEEIADGKIEPVVPKEYLG; Peptide with targeting and/or antimicrobial activity)", "Observation Type": "Activities", "Experimental Value": "G B"}
{"Substance": "NTNDLLQAFELMGLGMAGVFIVLGILYIVAELLIKIFPVNN [PF-C194]", "Observation Type": "Activities", "Experimental Value": "G B"}
{"Substance": "PF-518: peptide having multiple activities (SFYSKYSRYIDNLAGAIFLFF; Peptide with targeting and/or antimicrobial activity)", "Observation Type": "Activities", "Experimental Value": "G B"}

The measured values listed here are drawn from patent US20110039763A1.
